- Tested on: human promonocytic HL-CZ cells
- experiment description: Cell viability assay (trypan blue), HL-CZ cells
- assay context: 48 hours, trypan blue staining
Measured CC50 HL-CZ, listed per entry.
Please reply with the bare figure in mg/L and do not write the unit itself.

Recorded results for 3 compounds are shown here.
structure smiles string | study target | value unit | value
O=C1c2ccccc2-n2c1nc1ccccc1c2=O | human promonocytic HL-CZ cells | mg/L | 1.74
C=C(C)[C@@H]1CC[C@]2(CO)CC[C@]3(C)[C@H](CC[C@@H]4[C@@]5(C)CC[C@H](O)C(C)(C)[C@@H]5CC[C@]43C)[C@@H]12 | human promonocytic HL-CZ cells | mg/L | 2.10
C=C(C)[C@@H]1CC[C@]2(C)CC[C@]3(C)[C@H](CC[C@@H]4[C@@]5(C)CC[C@H](O)C(C)(C)[C@@H]5CC[C@]43C)[C@@H]12 | human promonocytic HL-CZ cells | mg/L | 3.44

Query: # input compound: Nc1ncnc2c1ncn2[C@@H]1O[C@H](CO)[C@@H](O)[C@H]1O ; wanted: its CC50 HL-CZ
Result: 15.38

Query: State the recorded CC50 HL-CZ for this entry: O=c1[nH]c2ccccc2o1
Result: 67.33

Where do these numbers come from? They come from paper PMC3405817.
